Molecular target: T1, cynomolgus monkey E-selectin extracellular domain with 10 His purification tail (cynomolgus monkey, UniProt P16581 22-554 (human entry))
T1 construct: also called cynomolgus E-selectin; truncated cynomolgus monkey E-selectin
T1 chain: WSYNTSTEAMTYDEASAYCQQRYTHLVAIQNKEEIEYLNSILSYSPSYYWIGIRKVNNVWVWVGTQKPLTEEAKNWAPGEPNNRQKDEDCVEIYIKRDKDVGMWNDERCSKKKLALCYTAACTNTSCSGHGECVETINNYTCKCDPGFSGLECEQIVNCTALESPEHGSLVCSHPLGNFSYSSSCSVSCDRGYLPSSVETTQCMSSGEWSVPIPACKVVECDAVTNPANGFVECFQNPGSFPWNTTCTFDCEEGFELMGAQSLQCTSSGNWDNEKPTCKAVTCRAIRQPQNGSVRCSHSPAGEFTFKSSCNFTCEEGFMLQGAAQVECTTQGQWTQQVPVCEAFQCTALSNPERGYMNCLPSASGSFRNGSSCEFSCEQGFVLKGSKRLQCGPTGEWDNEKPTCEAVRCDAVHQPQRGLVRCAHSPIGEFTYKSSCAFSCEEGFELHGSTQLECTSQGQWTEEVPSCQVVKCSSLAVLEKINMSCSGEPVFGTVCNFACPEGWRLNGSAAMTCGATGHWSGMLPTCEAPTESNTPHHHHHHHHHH
Test: SPR, antibody captured, E-selectin analyte
Quick reference for pKd among some binders
Hey, just a heads up that pKd is the negative log base 10 of the concentration in molar.

binder	measure	result
anti-E-selectin antibody 0164 chimera (antibody, human IgG1, kappa, V domains shown, rat VH/VL on effector-null human IgG1 and human kappa) VH: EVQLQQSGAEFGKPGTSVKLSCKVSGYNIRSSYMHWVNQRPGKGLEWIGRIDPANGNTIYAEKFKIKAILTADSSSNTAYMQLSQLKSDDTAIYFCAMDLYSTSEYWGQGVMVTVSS VL: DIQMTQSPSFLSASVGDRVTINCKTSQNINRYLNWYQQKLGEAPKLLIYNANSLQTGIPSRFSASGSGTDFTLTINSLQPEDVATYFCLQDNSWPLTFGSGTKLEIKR	pKd	7.34

# context switch: different binder, same pKd
Which pKd reading was recorded for the binder anti-E-selectin antibody 0170 chimera (antibody, human IgG1, kappa, V domains shown, rat VH/VL on effector-null human IgG1 and human kappa) VH: EVQLQQSGAELGKPGTSVKLSCKVSGYSIRSTYMHWVNQRPGKGLEWVGRIDPANGNTIYAERFKNKATLTADTSSNTAYMQLSQLKSDDTAIYFCAVEILGIFDYWGQGVMVTVSS VL: DIQMTQSPSFLSASVGDRVTINCKASQNIDKYLDWYQQKLGEAPKLLMYNTNSLHTGIPSRFSGSGSGTDFTLTISSLQPEDVATYFCLQHNSGYTFGAGTKLELKR ?
6.31
